These data points were gathered from patent US8455475B2.

Biological target: human B1R (bradykinin receptor 1) (Homo sapiens, UniProt P46663)
Construct: expressed in transfected cells; host or cells: CHO K1 cells
Sequence (P46663 1-353): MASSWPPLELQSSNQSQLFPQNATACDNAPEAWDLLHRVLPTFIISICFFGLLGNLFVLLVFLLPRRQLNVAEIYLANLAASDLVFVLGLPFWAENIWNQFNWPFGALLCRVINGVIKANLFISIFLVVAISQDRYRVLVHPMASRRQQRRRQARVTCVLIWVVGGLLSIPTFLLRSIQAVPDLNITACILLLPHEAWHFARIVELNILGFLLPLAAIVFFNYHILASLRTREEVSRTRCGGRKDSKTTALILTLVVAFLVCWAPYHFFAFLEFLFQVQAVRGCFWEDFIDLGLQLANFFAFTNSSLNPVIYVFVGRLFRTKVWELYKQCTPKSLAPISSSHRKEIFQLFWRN
Test: FLIPR Ca2+ assay (Fluo-4) on CHO K1 cells stably transfected with the human B1R gene (hB1R cells): % inhibition at 10 μM / IC50, agonist Lys-Des-Arg9-bradykinin
Format: cell-based
Conditions: CHO-K1, human B1R
endpoint.label: inhibition at 10 µM (%)

[
  {
    "compound": "Cc1cccc(Cl)c1S(=O)(=O)NC1c2cc(C(=O)N3CCC4(CC3)CCN(c3ccncc3)CC4)ccc2CC1(C)C (centres unmarked)",
    "target.entity": "human B1R (bradykinin receptor 1) (Homo sapiens, UniProt P46663)",
    "endpoint.label": "inhibition at 10 µM",
    "obs.value": 95
  },
  {
    "compound": "O=C(NC1CCc2ccc(C(=O)N3CCC4(CC3)CCN(c3ccncc3)CC4)cc21)c1cc(Cl)ccc1C(F)(F)F (centres unmarked)",
    "target.entity": "human B1R (bradykinin receptor 1) (Homo sapiens, UniProt P46663)",
    "endpoint.label": "inhibition at 10 µM",
    "obs.value": 99
  },
  {
    "compound": "CN(C(=O)c1ccccc1Cl)C1CCc2ccc(C(=O)N3CCC4(CC3)CCN(c3ccncc3)C4)cc21 (centres unmarked)",
    "target.entity": "human B1R (bradykinin receptor 1) (Homo sapiens, UniProt P46663)",
    "endpoint.label": "inhibition at 10 µM",
    "obs.value": 100
  },
  {
    "compound": "O=C(NC1CCc2ccc(C(=O)N3CCC4(CCN(c5ccncc5)CC4)C3)cc21)c1cc(C(F)(F)F)ccc1Cl (centres unmarked)",
    "target.entity": "human B1R (bradykinin receptor 1) (Homo sapiens, UniProt P46663)",
    "endpoint.label": "inhibition at 10 µM",
    "obs.value": 100
  },
  {
    "compound": "O=C(N[C@@H]1CCc2ccc(C(=O)N3CCC4(CC3)CCN(c3ccncc3)CC4)cc21)c1c(Cl)cccc1Cl",
    "target.entity": "human B1R (bradykinin receptor 1) (Homo sapiens, UniProt P46663)",
    "endpoint.label": "inhibition at 10 µM",
    "obs.value": 100
  },
  {
    "compound": "O=C(NC1CCc2ccc(C(=O)N3CCC4(CC3)CCN(c3ccncc3)C4)cc21)c1ccc(F)cc1Cl (centres unmarked)",
    "target.entity": "human B1R (bradykinin receptor 1) (Homo sapiens, UniProt P46663)",
    "endpoint.label": "inhibition at 10 µM",
    "obs.value": 100
  },
  {
    "compound": "O=C(N[C@@H]1CCOc2ccc(C(=O)N3CCC4(CC3)CCN(c3ccncc3)CC4)cc21)c1ccccc1Cl",
    "target.entity": "human B1R (bradykinin receptor 1) (Homo sapiens, UniProt P46663)",
    "endpoint.label": "inhibition at 10 µM",
    "obs.value": 99
  },
  {
    "compound": "CN(C(=O)c1cc(Cl)ccc1Cl)C1CCc2ccc(C(=O)N3CCC4(CC3)CCN(c3ccncc3)CC4)cc21 (centres unmarked)",
    "target.entity": "human B1R (bradykinin receptor 1) (Homo sapiens, UniProt P46663)",
    "endpoint.label": "inhibition at 10 µM",
    "obs.value": 100
  }
]

A. O=C(NC1CCc2ccc(C(=O)N3CCC4(CC3)CCN(c3ccncc3)CC4)cc21)c1ccc(Cl)cc1Cl (centres unmarked)
B. O=C(NC1CCc2ccc(C(=O)N3CCC4(CCN(Cc5ccc[nH]5)CC4)CC3)cc21)c1ccccc1Cl (centres unmarked)
Incoming: Which record shows the lower inhibition at 10 µM: the first, A , or the second, B ? Use the label to indicate which entry you chose.
Outgoing: B

* * *

target: human B1R (bradykinin receptor 1) (Homo sapiens); construct: expressed in transfected cells; host or cells: CHO K1 cells; test: FLIPR Ca2+ assay (Fluo-4) on CHO K1 cells stably transfected with the human B1R gene (hB1R cells): % inhibition at 10 μM / IC50, agonist Lys-Des-Arg9-bradykinin; format: cell-based; conditions: CHO-K1, human B1R
endpoint.label: inhibition at 10 µM (%)

[
  {
    "compound": "CN(C)C1(c2ccc(F)cc2)CCC2(CCN(C(=O)c3ccc4c(c3)C(NC(=O)c3ccccc3Cl)CC4)CC2)CC1 (centres unmarked)",
    "inhibition at 10 µM [%]": 39
  },
  {
    "compound": "O=C(N[C@@H]1CCc2ccc(C(=O)N3CCC4(CCCN(c5ccncc5)C4)CC3)cc21)c1ccccc1Cl",
    "inhibition at 10 µM [%]": 46
  },
  {
    "compound": "CC1(C)Cc2ccc(C(=O)N3CCC4(CC3)CCN(c3ccncc3)CC4)cc2C1NC(=O)c1ccccc1Cl (centres unmarked)",
    "inhibition at 10 µM [%]": 98
  }
]

1. O=C(NC1CCc2ccc(C(=O)N3CCC4(CC3)CCN(c3ccncc3)C4)cc21)c1cc(F)c(F)cc1Cl (centres unmarked)
2. COc1ccc(C(=O)N(C)C2CCc3ccc(C(=O)N4CCC5(CC4)CCN(c4ccncc4)CC5)cc32)c(F)c1 (centres unmarked)
3. O=C(NC1CCc2ccc(C(=O)N3CCC4(CCN(Cc5ccncc5)CC4)CC3)cc21)c1sccc1Cl (centres unmarked)
Incoming: Arrange these 3 compounds in increasing order of inhibition at 10 µM. I'd appreciate it if you listed the labels in the requested order.
Outgoing: 3, 2, 1
(3: 33%, 2: 59%, 1: 100%)

* * *

target: human B1R (bradykinin receptor 1) (Homo sapiens); construct: expressed in transfected cells; host or cells: CHO K1 cells; experiment: FLIPR Ca2+ assay (Fluo-4) on CHO K1 cells stably transfected with the human B1R gene (hB1R cells): % inhibition at 10 μM / IC50, agonist Lys-Des-Arg9-bradykinin; format: cell-based; conditions: human B1R
endpoint.label: % Inhibition (human B1R) at 10 μM (%)

Check out these entries, answers already filled in.
[
  {
    "compound": "O=C(Nc1ccc(Cl)c(Cl)c1)NC1CCc2ccc(C(=O)N3CCC4(CC3)CCN(c3ccncc3)C4)cc21 (centres unmarked) [Ind_CC-047]",
    "obs.value": 94
  },
  {
    "compound": "CC1(C)CC(NC(=O)Nc2ccc(Cl)c(Cl)c2)c2cc(C(=O)N3CCC4(CC3)CCN(c3ccncc3)CC4)ccc21 (centres unmarked) [Ind_CC-057]",
    "obs.value": 35
  },
  {
    "compound": "O=C(NC1CCc2ccc(C(=O)N3CCC4(CCN(c5ccncc5)CC4)C3)cc21)c1ccccc1Cl (centres unmarked) [Example H-05]",
    "obs.value": 100
  }
]

a. O=C(NC1CCc2ccc(C(=O)N3CCC4(CC3)CCN(c3ccncc3)C4)cc21)c1ccccc1Cl (centres unmarked) [IND_CC-271]
b. O=C(Nc1ccc(Cl)c(Cl)c1)NC1CCc2ccc(C(=O)N3CCC4(CC3)CCN(c3ccncc3)CC4)cc21 (centres unmarked) [Ind_CC-011]
Incoming: Which record shows the lower % Inhibition (human B1R) at 10 μM: the first, a , or the second, b ? Use the label to indicate which entry you chose.
Outgoing: b
(b: 36%, a: 100%)

* * *

target: human B1R (bradykinin receptor 1) (Homo sapiens, UniProt P46663); construct: expressed in transfected cells; host or cells: CHO K1 cells; experiment: FLIPR Ca2+ assay (Fluo-4) on CHO K1 cells stably transfected with the human B1R gene (hB1R cells): % inhibition at 10 μM / IC50, agonist Lys-Des-Arg9-bradykinin; type: cell-based; conditions: CHO-K1, human B1R
endpoint.label: inhibition at 10 µM (%)

[
  {
    "compound": "O=C(NC1CCc2ccc(C(=O)N3CCC4(CC3)CCN(c3ccncc3)CC4)cc21)c1cc(F)ccc1Cl (stereo not shown)",
    "inhibition at 10 µM / %": 100
  },
  {
    "compound": "Cc1cc2c(cc1C(=O)N1CCC3(CC1)CCN(c1ccncc1)CC3)[C@H](NC(=O)c1ccccc1Cl)CC2",
    "inhibition at 10 µM / %": 99
  },
  {
    "compound": "O=C(c1ccc2c(c1)[C@H](NS(=O)(=O)c1ccccc1Cl)CC2)N1CCC2(CCN(c3ccncc3)CC2)C1",
    "inhibition at 10 µM / %": 100
  },
  {
    "compound": "O=C(NC1CCc2ccc(C(=O)N3CCC4(CC3)CCN(c3ccncc3)CC4)cc21)c1cc(F)c(F)cc1Cl (stereo not shown)",
    "inhibition at 10 µM / %": 100
  }
]
